Value source: PubChem BioAssay (NCI)

In this section we review reported growth values for a set of compounds.
system: EKVX NSCLC; assay: NCI-60 one-dose screen, 48 h (100 = growth as untreated, 0 = no growth, -100 = all killed); conditions: 10 µM unless noted
The panel holds about 83,000 compounds, 20% with a hit somewhere; the sample as a whole holds those more often.

>  <compound>
Clc1ccc(Sc2cnc(-c3ccccc3)o2)cc1

>  <growth / %>
98.5

$$$$
>  <compound>
CC12CCC3c4ccccc4CCC3(CO1)C2 (centres undefined)

>  <growth / %>
107

$$$$
>  <compound>
CNC(=O)c1c(NC(=O)c2ccc(C(F)(F)F)cc2)sc2c1CCC(=O)C2

>  <growth / %>
9.76

$$$$
>  <compound>
O=C(c1ccccc1)C1C(=O)N2C(=S)N(c3ccccc3)C(=O)C2C1c1ccc(Cl)cc1 (centres undefined)

>  <growth / %>
100

$$$$
>  <compound>
C=CCn1c(SCC(=O)Nc2ccc(C(=O)/C=C/c3cc4cc(OC)ccc4nc3Cl)cc2)nnc1-c1ccc(Br)cc1

>  <growth / %>
87.4

$$$$
>  <compound>
C#Cc1ccc(NC(=O)c2ccc(/C=C/C(=O)c3nccn3C)cc2)cc1

>  <growth / %>
-75.4

$$$$
>  <compound>
CCN(CC)C(=S)SC(SC(=S)N(CC)CC)C(=O)c1nnn(-c2ccc([N+](=O)[O-])cc2)c1C

>  <growth / %>
97.2

$$$$
>  <compound>
O=C(/C=C(/C=C/c1cccc2[nH]ccc12)OB(F)F)/C=C/c1cccc2[nH]ccc12

>  <growth / %>
-30.9

$$$$
>  <compound>
O=C(CCCCCCN1CC(=O)N2[C@H](c3cc(Br)cs3)c3[nH]c4ccccc4c3C[C@H]2C1=O)NO

>  <growth / %>
75.4

$$$$
